// data source = ChEMBL document CHEMBL4265950

Target: cGMP-specific 3',5'-cyclic phosphodiesterase (Rattus norvegicus, UniProt O54735)
Protocol Text: Inhibition of PDE5 in Wistar rat mesentric arteries assessed as inhibition of phenylephrine-induced contraction by measuring increase in acetylcholine-induced vasorelaxation by pressure myographic method
Readout Type: EC50 (nM)

Worked cases, EC50 given:
[[record]]
smiles_data = "CN1CC(=O)N2[C@H](c3ccc(Br)s3)c3[nH]c4ccccc4c3C[C@@H]2C1=O"
target = "cGMP-specific 3',5'-cyclic phosphodiesterase (Rattus norvegicus, UniProt O54735)"
readout_type = "EC50"
quantity_unit = "nM"
numeric_result = 55

[[record]]
smiles_data = "Cc1ccc([C@@H]2c3[nH]c4ccccc4c3C[C@@H]3C(=O)N(C)CC(=O)N23)s1"
target = "cGMP-specific 3',5'-cyclic phosphodiesterase (Rattus norvegicus, UniProt O54735)"
readout_type = "EC50"
quantity_unit = "nM"
numeric_result = 71

[[record]]
smiles_data = "CCc1ccc([C@@H]2c3[nH]c4ccccc4c3C[C@H]3C(=O)N(CC)C(=O)N23)s1"
target = "cGMP-specific 3',5'-cyclic phosphodiesterase (Rattus norvegicus, UniProt O54735)"
readout_type = "EC50"
quantity_unit = "nM"
numeric_result = 58

[[record]]
smiles_data = "CCc1ccc([C@@H]2c3[nH]c4ccccc4c3C[C@@H]3C(=O)N(C)CC(=O)N23)o1"
target = "cGMP-specific 3',5'-cyclic phosphodiesterase (Rattus norvegicus, UniProt O54735)"
readout_type = "EC50"
quantity_unit = "nM"
numeric_result = 725

[[record]]
smiles_data = "CCc1ccc([C@@H]2c3[nH]c4ccccc4c3C[C@@H]3C(=O)N(CC)C(=O)N23)o1"
target = "cGMP-specific 3',5'-cyclic phosphodiesterase (Rattus norvegicus, UniProt O54735)"
readout_type = "EC50"
quantity_unit = "nM"
numeric_result = 225


1. CCc1ccc([C@@H]2c3[nH]c4ccccc4c3C[C@H]3C(=O)N(CC)C(=O)N23)o1
2. CCN1C(=O)[C@@H]2Cc3c([nH]c4ccccc34)[C@@H](c3ccc(C)o3)N2C1=O
[in] I'm curious whether 1 or 2 has the smaller EC50 number. Which is it? Use the label to indicate which entry you chose.
[out] 1

P. CN1CC(=O)N2[C@H](c3ccc4c(c3)OCO4)c3[nH]c4ccccc4c3C[C@@H]2C1=O
Q. CCc1ccc([C@@H]2c3[nH]c4ccccc4c3C[C@@H]3C(=O)N(C)CC(=O)N23)s1
[in] Compare the recorded EC50 of P and Q ; state which is larger. Use the label to indicate which entry you chose.
[out] P
(P: 78 nM, Q: 30 nM)
